# experimentalTarget: Solute carrier organic anion transporter family member 1B3 (Homo sapiens)
# Sequence (Q9NPD5 whole entry): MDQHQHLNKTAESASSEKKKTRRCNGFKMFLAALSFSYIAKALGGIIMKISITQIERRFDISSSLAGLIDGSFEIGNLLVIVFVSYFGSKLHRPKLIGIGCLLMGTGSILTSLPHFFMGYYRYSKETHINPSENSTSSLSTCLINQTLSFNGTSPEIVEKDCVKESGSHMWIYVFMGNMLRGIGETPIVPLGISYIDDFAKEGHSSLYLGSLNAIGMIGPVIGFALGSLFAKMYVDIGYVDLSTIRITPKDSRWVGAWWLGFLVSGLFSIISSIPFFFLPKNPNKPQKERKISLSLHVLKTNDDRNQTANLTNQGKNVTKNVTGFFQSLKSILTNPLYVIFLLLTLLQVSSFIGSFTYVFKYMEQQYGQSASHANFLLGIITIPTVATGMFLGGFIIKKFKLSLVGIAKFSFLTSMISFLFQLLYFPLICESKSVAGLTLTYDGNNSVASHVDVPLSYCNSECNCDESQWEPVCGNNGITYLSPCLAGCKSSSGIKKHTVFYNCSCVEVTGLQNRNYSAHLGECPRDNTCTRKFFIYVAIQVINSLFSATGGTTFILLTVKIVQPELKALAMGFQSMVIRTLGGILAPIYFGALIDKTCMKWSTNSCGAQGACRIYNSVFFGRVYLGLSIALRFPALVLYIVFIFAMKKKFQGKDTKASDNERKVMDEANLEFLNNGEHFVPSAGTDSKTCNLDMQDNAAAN
pKi for assorted molecules
Please treat pKi as minus the base-10 logarithm of the molar concentration.

Example cases with answers are listed next.
{"columns": ["molecule", "resultValue"],
 "data": [
  ["CC(C)=CCC[C@]1(C)C=Cc2c(O)c3c(c(CC=C(C)C)c2O1)O[C@]12C(C[C@@H]4C[C@H]1C(C)(C)O[C@@]2(C/C=C(/C)C(=O)O)C4O)C3=O (stereo not given in full)", 5.67],
  ["CCCCCC[C@H]1C(=O)O[C@H](C)[C@H](NC(=O)c2cccc(NC=O)c2O)C(=O)O[C@@H](C)[C@@H]1OC(=O)CC(C)C [ANTIMYCIN A]", 5.42],
  ["O=C(OC[C@H]1O[C@@H](OC(=O)c2cc(O)c(O)c(OC(=O)c3cc(O)c(O)c(O)c3)c2)[C@H](OC(=O)c2cc(O)c(O)c(OC(=O)c3cc(O)c(O)c(O)c3)c2)[C@@H](OC(=O)c2cc(O)c(O)c(OC(=O)c3cc(O)c(O)c(O)c3)c2)[C@@H]1OC(=O)c1cc(O)c(O)c(OC(=O)c2cc(O)c(O)c(O)c2)c1)c1cc(O)c(O)c(OC(=O)c2cc(O)c(O)c(O)c2)c1", 5.49],
  ["CC(=O)O[C@@H]1CC[C@]2(C)[C@H](C[C@@H](OC(C)=O)[C@]3(C)C4=CC(=O)O[C@H](c5ccoc5)[C@@]4(C)CC[C@@H]23)C1(C)C", 5.97]
]}

Reported pKi for CC(=O)O[C@@H]1C[C@@]2(C)[C@H](c3ccoc3)C[C@H]3O[C@]32[C@]2(C)C(=O)C(O)=C3C(C)(C)C(=O)C=C[C@]3(C)C12 (stereo not given in full) : what is it?
5.58

----------
# experimentalTarget: Solute carrier organic anion transporter family member 1B3 (Homo sapiens, UniProt Q9NPD5)
# experimentalSetup: chinese hamster, cho, 10 µM
measuredMetric: residual activity (%)
Kindly answer with a numeric value in %, unit omitted.

Example cases with answers are listed next.
{"columns": ["molecule", "unitString", "residual activity"],
 "data": [
  ["CCC(N)C(O)c1ccc(O)c(O)c1.Cl (stereo unspecified) [ETHYLNOREPINEPHRINE HYDROCHLORIDE]", "%", 104.2],
  ["COc1c2c(cc3c1OCO3)CC[N+](C)=C2.[Cl-] [COTARNINE CHLORIDE]", "%", 93.29],
  ["c1ccc(-c2ccc(C(c3ccccc3)n3ccnc3)cc2)cc1 (stereo unspecified)", "%", 115.7]
]}

Reported residual activity for CS(=O)(=O)CCCCN=C=S : what is it?
72.62

Reported residual activity for COc1ccc2c(c1)OCC(Cc1ccc(OC)c(OC(C)=O)c1)C2=O (stereo unspecified) : what is it?
148.3

Reported residual activity for COc1cc(/C=C/C(=O)O)cc(OC)c1OC : what is it?
88.51
